Each recorded value in this set is attributed to a melting point compilation (Tetko et al.; mined from patent text by program, amines drawn as free bases though some values may be those of a salt).

The following molecules are shown together with reported melting point values.

molecule	melting point
O=C(Cl)c1cc([N+](=O)[O-])cc2c1OCCO2	108 °C
CC(C)c1cccc(C(C)C)c1NC(=O)C1c2ccccc2COc2cc(Br)ccc21 (centres undefined)	170 to 172 °C
CCCc1nc2c(N)nc(C)c(C)c2n1NC1CCCCC1	177 to 179 °C
CSc1nc(N)nc(-c2ccccc2)c1-c1ccc(=O)n(C)n1	233 to 235 °C
CC(=O)OCc1cc2c(c3c1CCC3)C(=O)c1ccccc1C2=O	160 to 161 °C
N[C@@H]1Cc2c(Br)ccc3c2[C@@H](C1)CN3C(=O)c1ccccc1	169 to 173 °C
COc1ccc(-c2ccc3c(C(=O)O)cccc3c2)cc1C12CC3CC(CC(C3)C1)C2	222 °C
CNC1CN(C(=O)Nc2ccc(C(F)(F)F)cc2)N=C1c1ccc(Cl)cc1 (centres undefined)	148 to 149 °C
CC(C)c1nc(CO)n(Cc2ccc([N+](=O)[O-])cc2)c1Sc1cc(Cl)cc(Cl)c1	192 to 194 °C

---

The following compounds are shown together with reported melting point values.

compound	melting point
COCCOc1ccn(O)c(=O)c1	134 °C
O=C(Nc1ccc(-n2nc(C(F)(F)F)cc2Br)cc1)c1ccncc1F	143 to 144 °C
CCOC(=O)COc1ccc(OCc2ccccc2)cc1C(Nc1ccc(C(=N)NC(=O)OC(C)(C)C)cc1)C(=O)OCC (racemic)	258 °C
N#Cc1c(F)cc(OCc2ccncc2)cc1OC(C(=O)O)c1ccccc1Cl (racemic)	135 to 139 °C
CN(C)CCNC(=O)c1ccc(C(Cc2ccc(F)cc2)C(=O)Nc2nc3ccccc3o2)cc1 (stereo not given)	149 to 151 °C
CCCCCCCCCCCCC1C=CC(Oc2ccc(C(=O)O)o2)=C2N=C3CCCCC3=C21 (stereo not given)	110 to 112 °C
CCCCCCC(=O)NNC(=O)OC	74 to 75 °C
Fc1ccc(N2CCN(Cc3ccc4c(c3)NCCN4)CC2)cc1	126 to 127 °C
Nc1cc(OC(F)(F)C(F)Cl)c(OC(F)(F)C(F)Cl)cc1N (stereo not given)	58 to 60 °C
COC(=O)C1C(C)OC(=O)C(C)C1NC(=O)OCc1ccccc1 (stereo not given)	144 to 146 °C

---

The following compounds are shown together with reported melting point values.

molecule	melting point
CCOC(=O)C(C)(C)Oc1ccc(OCCn2c(=O)sc3cc(C(=O)c4ccccc4)ccc32)cc1	120 to 121 °C
CC(=O)OCCCN(C)CCN(C)C(=O)[C@@H]1CCCN1S(=O)(=O)c1ccc(Cl)c(COc2cccc3c(-n4ccnc4)cc(C)nc23)c1Cl	75 °C
C=CCOc1cccc(-c2c(O)c3ccc(Cl)cc3[nH]c2=O)c1	> 300 °C
N#CN1CCC(=C2c3ccccc3Oc3ccc(Cl)cc32)CC1	148 to 150 °C

---

readout name: melting point

compound	readout name	endpoint result
CCOCc1nc2c(N)nc3cccnc3c2n1CC(C)(C)O	melting point	157 to 159 °C
O=C1CCC(c2ccc(C(=O)Nc3ccccc3F)cc2)=NN1	melting point	242 to 244 °C
Cc1ccc(S(=O)(=O)C#CBr)cc1	melting point	99 to 101 °C
CCOC(=O)c1c(C(F)(F)F)nc(OC)c(C#N)c1OC	melting point	32 to 34 °C
Cc1ccc(N2CCN(CCCCc3ccc(C4CCC(=O)N4)cc3)CC2)cc1 (stereo not given)	melting point	164 to 165 °C
COc1ccc(C=CC(=O)NNC(=O)CCc2cc(C(C)(C)C)c(O)c(C(C)(C)C)c2)cc1	melting point	252 to 254 °C
CON(C)C(=O)C(O)CNC(=O)c1cc2cc(Cl)ccc2[nH]1 (racemic)	melting point	192 °C
O=C(Nc1cc(OC2CCCC2)c(Cl)cc1F)C1=C(C(=O)NC2CCCCC2)CCCC1	melting point	209 to 211 °C
CCCc1c(OCCOc2cccc(C(=O)O)c2)ccc(C(C)=O)c1O	melting point	155 °C
COC(=O)c1c(CSc2nccn2C)nc2cc(OC)c(OC)cc2c1-c1ccc(OC)c(OC)c1	melting point	159 to 160 °C

---

The following molecules are shown together with reported melting point values.

molecule	melting point
C1=CCC2=C(C1)CCc1ccccc1C2CCN1CCCC1 (configuration not stated)	57 to 58.5 °C
CC(=Cc1c(-c2ccccc2)nc2sc(C)nn12)C(=O)O	298 to 300 °C
N#Cc1ccc2c(c1)C(=O)c1ccccc1CN2	235 to 236 °C
Cc1oc2c(OC(C)C(N)=O)cccc2c1C (configuration not stated)	116 to 119 °C
NC(=O)OC1CCN(C(=O)Cn2c(=O)sc3ccc(Cl)cc32)CC1	210 to 212 °C
CCOCc1cc(N2C(=O)C3=C(CCCC3)C2=O)c(F)cc1Cl	89 to 91 °C
CC(CC=O)P(=O)(O)CCCCc1ccccc1 (configuration not stated)	138 °C
CNC(=O)c1snc(-c2cccc(C(F)(F)F)c2)c1N	113 °C
CCc1c(C(C#N)c2cc(C)cc(C)c2)[nH]c(=O)[nH]c1=O (configuration not stated)	105 to 107 °C
N#Cc1cc2ccccc2[nH]1	94 to 95 °C
Cc1nc(C)c(C(C)(O)c2ccsc2)o1 (configuration not stated)	132 to 133 °C
COC(=O)c1ccc2c(nnn2C)c1C(=O)OC	146 to 147 °C

---

readout name: melting point

molecule	endpoint result
CN1C(=O)CC[C@]2(C)c3ccc(CCc4ccccc4)cc3CC[C@@H]12	109 to 111 °C
COc1nc(Br)cnc1NS(=O)(=O)c1ccccc1-c1ccc(CC(C)C)cc1	154 to 156 °C
CCCCCCCS(=O)(=O)c1ccc(N)cc1	91 to 92 °C
O=Cc1c2ccccc2c(Cl)c2cc3ccccc3cc12	212 to 214 °C
CCc1[nH]n(C2CCCC2)c2nc(-c3cccc(OCCN4CCOCC4)c3)nc(=O)c1-2	173 to 176 °C
CC(C)Nc1nc(N)c(C(=O)N=CNNS(=O)(=O)N(C)C)nc1Cl	172 °C
Fc1ccc2[nH]cc(Cc3ccncc3)c2c1	141 to 142 °C
O=C(O)COc1cc2cc(-c3ccccc3)sc2c(Cl)c1Cl	209 to 211 °C
N#Cc1nn(-c2c(Cl)cc(C(F)(F)F)cc2Cl)c(-n2cccn2)c1S(=O)(=O)C(F)(F)F	191 to 193 °C
COc1cc(C(=O)c2c(F)cccc2F)ccc1O	147 to 149 °C
Nc1ncnc2c1c(-c1ccc(Oc3ccccc3)cc1)cn2C1CCOCC1	193 to 194 °C
COc1ccc(Nc2nc(NC(C)C)nc(Oc3ccccc3C#CC(C)(C)O)n2)cc1Cl	138 to 140 °C
COC(=O)C1CC2(CN1C(=O)CN(C)CC(=O)C(Cc1ccccc1)NC(=O)c1ccccc1)SCCS2 (stereo not given)	60 to 62 °C
CN(C)C(=O)n1cc(C(=O)C2CSC(c3cccnc3)N2)c2ccc(OCc3ccc(F)cc3)cc21 (stereo not given)	71 to 74 °C
CC1(C)CC(=O)c2c(Cc3ccccc3)cn(-c3ccccn3)c2C1	111 to 113 °C
CNc1ccccc1CS(=O)c1nc2ncccc2[nH]1 (stereo not given)	120 °C
COC(=O)ONC(=N)Nc1ccc(C(=O)O)cc1	174 to 175 °C
Cc1cc(Cl)c(N=C2NCCN2)cc1[N+](=O)[O-]	198 to 201 °C
CC(=O)NC[C@H]1CN(c2ccc(-c3noc(C#N)n3)c(F)c2)C(=O)O1	200 to 202 °C
CCC1(CC(O)(CBr)c2ccccc2)C(=O)c2ccccc2C1=O (stereo not given)	89 to 92 °C

---

compound	melting point
CCOc1nn(-c2ccc(C(F)(F)F)cn2)cc1CCCOc1c(CCC(=O)O)cccc1OC	87 to 88 °C
COc1cc(N)c(Cl)cc1C(=O)NC1C2CCN(CC2)C1CN1CCCCC1 (stereo not given)	185 to 187 °C
CC(C)(C)c1cc(NN=Cc2ccc(C(=O)O)cc2)cc(C(C)(C)C)c1	208 to 213 °C
CCN(CCO[N+](=O)[O-])C(=O)COC(=O)c1cc(S(N)(=O)=O)c(Cl)cc1NCc1ccco1	60 to 62 °C
Nc1cc(C(=O)Nc2ccccc2)ccc1OC(F)(F)F	160 to 162 °C
Clc1nc(-c2cccnc2)sc1-c1cccnc1	145 to 147 °C
Cc1cc(-n2ccnc2)c2cccc(OCc3c(Cl)ccc(S(=O)(=O)N4CCC[C@H]4C(=O)N4CCN(Cc5ccncc5)CC4)c3Cl)c2n1	108 °C
O=[N+]([O-])c1cc(CBr)n(CCBr)n1	95 to 97 °C
CN1C(C(=O)Nc2cccccc2=O)=C(O)c2sccc2S1(=O)=O	242 to 245 °C
COCCOCCOC(=O)C#CC(=O)/C=C/c1ccc(OC)cc1	41 to 42 °C
CCCS(=O)(=O)Oc1c(C(=O)c2ccc3c(c2C)C(N(C)C(=O)OC)CCS3(=O)=O)cnn1CC (stereo not given)	156 to 159 °C
CC(=O)Nc1ccc(Nc2ccccc2[N+](=O)[O-])cc1	164 to 166 °C
CC(=O)Nc1ccc(OCCOc2ccccc2)cc1[N+](=O)[O-]	104 to 106 °C
Cc1ccc(S(=O)(=O)N[C@H](CO)CCO)cc1	90 to 92 °C
O=Cc1cc2c3ccccc3ccc2c2occc12	145 to 150 °C
COc1ccc(S(=O)(=O)N(CC(=O)NO)Cc2ccc3ccccc3n2)cc1	177 to 178 °C
Cn1cncc1C(O)(c1ccc(Cl)cc1)c1ccc2c(c1)C(c1cccc(Cl)c1)OCC(=S)N2 (stereo not given)	> 300 °C
Nc1c(-c2ccc(I)cc2)nc2ccc(F)cc2c1C(=O)O	251 to 253 °C
O=[N+]([O-])C=C1CN=C(c2ccccc2)c2cc(Cl)ccc2N1	184 to 186 °C
CC(C)c1ccc(C(=O)NNC(=O)c2ccc(C(=O)O)cc2)cc1	235 to 237 °C
